Condition summary: Patient ID 120, CYP2D6 functional group EM/IM
Measured property: plasma concentration (ng/mL)

{"columns": ["Molecule", "plasma concentration, ng/mL"],
 "data": [
  ["CC/C(=C(\\c1ccccc1)c1ccc(OCCN(C)C)cc1)c1ccc(O)cc1", 2.36]
]}

(1) CC(O)C(=C(c1ccccc1)c1ccc(OCCN(C)C)cc1)c1ccccc1 (racemic) [(Z)-a-OH-Tam]
(2) CC/C(=C(/c1ccc(OCCNC)cc1)c1ccc(O[C@@H]2O[C@H](C(=O)O)[C@@H](O)[C@H](O)[C@H]2O)cc1)c1ccccc1
(3) CC/C(=C(\c1ccc(O)cc1)c1ccc(OCCNC)cc1)c1ccccc1 [(Z)-Endoxifen 3-OH-NDM-Tam]
(4) CC/C(=C(\c1ccccc1)c1ccc(OCCN(C)C)cc1)c1ccccc1
(5) CC(O)C(=C(c1ccccc1)c1ccc(OCCN(C)C)cc1)c1ccccc1 (racemic) [(E)-a-OH-Tam]
Ascending by plasma concentration, please: list the molecules accordingly. Note for the reader: the ranking is given by listing the labels in the order requested.
1, 5, 2, 3, 4
(1: 0.081 ng/mL, 5: 0.209 ng/mL, 2: 0.628 ng/mL, 3: 3.82 ng/mL, 4: 134.22 ng/mL)
